Target: T1, human CD70 recombinant protein (human, UniProt P32970 39-193, limits assumed)
T1 construct: May be the same reagent as ACRO CDL-H5246; also called CD70 protein
T1 sequence (looked up): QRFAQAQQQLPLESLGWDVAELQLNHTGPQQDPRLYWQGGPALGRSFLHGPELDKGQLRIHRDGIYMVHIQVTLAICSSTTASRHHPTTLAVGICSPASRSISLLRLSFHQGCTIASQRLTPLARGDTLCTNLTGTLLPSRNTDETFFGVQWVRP
Test: ELISA, IgG titrated on coated human CD70 recombinant protein (2 µg/ml), anti-human Fc-HRP, OD450
quantity.name: EC50

Reported EC50, binder 69A7 (parent antibody), full IgG (antibody, V domains shown, also called parent antibody 69A7) VH: QVQLQESGPGLVKPSETLSLTCTVSGGSVSSDYYYWSWIRQPPGKGLEWLGYIYYSGSTNYNPSLKSRVTISVDTSKNQFSLKLRSVTTADTAVYYCARGDGDYGGNCFDYWGQGTLVTVSS VL: EIVLTQSPATLSLSPGERATLSCRASQSVSSYLAWYQQKPGQAPRLLIFDASNRATGIPARFSGSGSGTDFTLTISSLEPEDFAVYYCQQRSNWPLTFGGGTKVEIK : ____
0.278 µg/mL

Proceed to 1H8, full IgG (antibody, V domains shown) VH: QVQLQESGPGLVKPSETLSLTCTVSGGSVSSDYYYWSWIRQPPGKGLEWLGYIYYSGSTNYNPSLKSRVTISVDTSKNQFSLKLRSVTTADTAVYYCARGDGDFMGVCFDYWGQGTLVTVSS VL: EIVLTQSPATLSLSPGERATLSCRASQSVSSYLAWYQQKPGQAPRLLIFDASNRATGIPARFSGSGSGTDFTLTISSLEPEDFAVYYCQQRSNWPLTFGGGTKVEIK
0.0595 µg/mL

Do the same for 2E7, full IgG (antibody, V domains shown) VH: QVQLQESGPGLVKPSETLSLTCTVSGGSVSSDYYYWSWIRQPPGKGLEWLGYIYYSGSTNYNPSLKSRVTISVDTSKNQFSLKLRSVTTADTAVYYCARGDGDFLGVCFDYWGQGTLVTVSS VL: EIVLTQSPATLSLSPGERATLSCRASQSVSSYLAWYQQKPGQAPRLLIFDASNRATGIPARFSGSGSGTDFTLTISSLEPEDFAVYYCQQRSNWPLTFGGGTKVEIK please
0.0161 µg/mL
